system: HepG2 cells; experiment: HepG2 cytotoxicity assay; details: HepG2 cytotoxicity unified across screens; >25 set to 25.00
Rule: Unified cytotox under 6 µM gives Condition not met, otherwise Condition met.

- COMPOUND: "CN1CCC(N(Cc2ccc(-c3ccc(Cl)cc3)cc2)C(=O)Cn2c(CCc3cccc(F)c3F)cc(=O)c3ccccc32)CC1.O=C(O)C(O)C(O)C(=O)O"
  ASSAY_SYSTEM: "HepG2 cells"
  ASSIGNED_CLASS: "Condition met"
- COMPOUND: "CCCCCCCN1CC[C@@H](CCCc2ccnc3ccc(OCCC4CCNCC4)cc23)[C@@H](CC)C1.Cl"
  ASSAY_SYSTEM: "HepG2 cells"
  ASSIGNED_CLASS: "Condition not met"
- COMPOUND: "O=C(O)C(F)(F)F.c1cc(CN2CCC(CCN3CCCCC3)CC2)cc(-c2cccc(-c3nc4ccccc4[nH]3)c2)c1"
  ASSAY_SYSTEM: "HepG2 cells"
  ASSIGNED_CLASS: "Condition met"
- COMPOUND: "CC(C)CCNC(=N)Nc1ccc(OCCCCCOc2ccc(NC(=N)NCCC(C)C)cc2)cc1"
  ASSAY_SYSTEM: "HepG2 cells"
  ASSIGNED_CLASS: "Condition met"
- COMPOUND: "COc1cc(CCNC(=N)/C=C/c2ccc(Cl)cc2)ccc1Cl.Cl"
  ASSAY_SYSTEM: "HepG2 cells"
  ASSIGNED_CLASS: "Condition met"

-- ask In plain terms: is recorded Unified cytotox at least 6 µM for Cl.O=C(NCCCCN1CCC(c2ccc3c(c2OCCO)CCCC3)CC1)c1ccc2oc(-c3ccc(C(F)(F)F)cc3)cc2c1 ?
-- reply Condition met

-- ask In plain terms: is recorded Unified cytotox at least 6 µM for O=C(Nc1ccc(F)c(C(F)(F)F)c1)NC1CCN(CCCCCNC(=O)C2CC2c2ccc(Cl)c(Cl)c2)CC1 (stereo not drawn) ?
-- reply Condition met

-- ask In plain terms: is recorded Unified cytotox at least 6 µM for Cc1ccc2nc(C)cc(N/N=C/c3ccc([N+](=O)[O-])cc3)c2c1 ?
-- reply Condition not met

-- ask In plain terms: is recorded Unified cytotox at least 6 µM for COc1ccc(CNCc2ccc(F)cc2)cc1-c1ccc(S(=O)(=O)NCCN2CCCC2)cc1.O=C(O)C(F)(F)F ?
-- reply Condition met

-- ask In plain terms: is recorded Unified cytotox at least 6 µM for CC(C)(C)N1CCC(N(Cc2ccc(-c3ccc(C(F)(F)F)cc3)cc2)C(=O)Cn2c(CCc3cccc(F)c3F)cc(=O)c3cccnc32)CC1.O=C(O)C(O)C(O)C(=O)O ?
-- reply Condition not met
